test system: Hortaea werneckii; assay: Antimicrobial activity against Hortaea werneckii by broth microdilution method; format: functional
*1 amine or outer side, *2 acyl side, *3 side chain or, on linkers, in order; H or OH if unused. Where a SMILES comes first, the peptide text is derived from it. Bridges are numbered along the chain shown (N, C = ends). [ ]: non-standard residue; d: D form. The star is where a group is joined. hTyr(3S-OH,4S-OH,3'-OSO3H) = N[C@H](C(=O)O)[C@H](O)[C@@H](O)c1ccc(O)c(OS(=O)(=O)O)c1; Orn(4R-OH,5R-OH) = O=C([C@H](C[C@@H](O)[C@@H](O)N[*:3])N[*:1])[*:2]; Pro(3S-OH,4S-Me) = C[C@H]1CN[C@H](C(=O)O)[C@H]1O; X1 = CCCCCOc1ccc(-c2cc(-c3ccc(C(=O)*)cc3)no2)cc1; Gln(3R-OH) = NC(=O)C[C@@H](O)[C@H](N)C(=O)O; Hyp = O=C(O)[C@@H]1C[C@@H](O)CN1
quantity-measured: MIC50 (µg/mL)

# compound, quantity-measured, reported-measurement
rows = [
    ("C[C@@H](c1ncncc1F)[C@](O)(Cn1cncn1)c1ccc(F)cc1F [VORICONAZOLE]", "MIC50", 0.06),
    ("CCC(C)n1ncn(-c2ccc(N3CCN(c4ccc(OCC5COC(Cn6cncn6)(c6ccc(Cl)cc6Cl)O5)cc4)CC3)cc2)c1=O (centres undefined) [ITRACONAZOLE]", "MIC50", 0.12),
    ("CCCCCOc1ccc(-c2cc(-c3ccc(C(=O)N[C@H]4C[C@@H](O)[C@@H](O)NC(=O)[C@@H]5[C@@H](O)[C@@H](C)CN5C(=O)[C@H]([C@H](O)CC(N)=O)NC(=O)[C@H]([C@H](O)[C@@H](O)c5ccc(O)c(OS(=O)(=O)O)c5)NC(=O)[C@@H]5C[C@@H](O)CN5C(=O)[C@H]([C@@H](C)O)NC4=O)cc3)no2)cc1 [MICAFUNGIN] (X1-[Orn(4R-OH,5R-OH)]T[Hyp][hTyr(3S-OH,4S-OH,3'-OSO3H)][Gln(3R-OH)][Pro(3S-OH,4S-Me)]; lactam 1-C)", "MIC50", 0.03),
    ("C[C@@H]1[C@H](O)[C@@H](C)/C=C/C=C/C=C/C=C/C=C/C=C/C=C/[C@H](O[C@@H]2O[C@H](C)[C@@H](O)[C@H](N)[C@@H]2O)C[C@@H]2O[C@](O)(C[C@@H](O)C[C@@H](O)[C@H](O)CC[C@@H](O)C[C@@H](O)CC(=O)O[C@H]1C)C[C@H](O)[C@H]2C(=O)O [AMPHOTERICIN B]", "MIC50", 0.25),
]
